List of combination Emax values.
# Tested on: PANC-08-13 (Pancreatic Carcinoma)
# test.name: combination Emax (second highest fraction inhibited in the dose matrix, 72 h); higher = more inhibition; extreme values may be limits of the assay
Answer as a number with no unit attached.

A selection of reference data follows.
C[C@@H](c1ccc2nccn2c1)n1nnc2ncc(-c3cnn(C)c3)nc21 [Savolitinib] + CN(CC[C@H](CSC1=CC=CC=C1)NC2=C(C=C(C=C2)S(=O)(=O)NC(=O)C3=CC=C(C=C3)N4CCC(CC4)[C@H](C5=CC=CC=C5C6=CC=C(C=C6)Cl)O)S(=O)(=O)C(F)(F)F)CCO [AZD4320] (first compound max 1 µM, 7x7, partner max 1 µM)    0.394
COc1nnc2ccc(N3CCC(c4ccc(OCCN5CCN(C)C(=O)[C@H]5C)cc4)CC3)nn12 [AZD5153] + Cn1cnc2c(F)c(Nc3ccc(Br)cc3Cl)c(C(=O)NOCCO)cc21 [Selumetinib] (first compound max 1 µM, 7x7, partner max 10 µM)    0.805
Cn1cnc2c(F)c(Nc3ccc(Br)cc3Cl)c(C(=O)NOCCO)cc21 [Selumetinib] + C[C@@H]1COCCN1C2=NC(=NC(=C2)C3(CC3)[S@](=N)(=O)C)C4=C5C=CNC5=NC=C4 [AZD6738] (first compound max 10 µM, 7x7, partner max 10 µM)    0.239
CN(CCO)CC[C@H](CSc1ccccc1)Nc1ccc(S(=O)(=O)NC(=O)c2ccc(N3CCC([C@@H](O)c4ccccc4-c4ccc(Cl)cc4)CC3)cc2)cc1S(=O)(=O)C(F)(F)F [AZD4320] + Cn1cnc2c(F)c(Nc3ccc(Br)cc3Cl)c(C(=O)NOCCO)cc21 [Selumetinib] (first compound max 1 µM, 7x7, partner max 3 µM)    0.528
Cc1nc(Nc2ncc(C(=O)Nc3c(C)cccc3Cl)s2)cc(N2CCN(CCO)CC2)n1 [Dasatinib] + CC(=O)Nc1cccc(-n2c(=O)n(C3CC3)c(=O)c3c(Nc4ccc(I)cc4F)n(C)c(=O)c(C)c32)c1 [Trametinib] (first compound max 2 µM, 7x7, partner max 1 µM)    0.738

Ask: # combination Emax lookup, item COc1cccc(OCCCN)c1-c1cc(Nc2cnc(C#N)cn2)n[nH]1 [Prexasertib] + C=CCn1c(=O)c2cnc(Nc3ccc(N4CCN(C)CC4)cc3)nc2n1-c1cccc(C(C)(C)O)n1 [AZD1775] (first compound max 1 µM, partner max 1 µM)
Reply: 0.544

Ask: # combination Emax lookup, item CN(CCO)CC[C@H](CSc1ccccc1)Nc1ccc(S(=O)(=O)NC(=O)c2ccc(N3CCC([C@@H](O)c4ccccc4-c4ccc(Cl)cc4)CC3)cc2)cc1S(=O)(=O)C(F)(F)F [AZD4320] + C[C@@H]1COCCN1C2=NC(=NC(=C2)C3(CC3)[S@](=N)(=O)C)C4=C5C=CNC5=NC=C4 [AZD6738] (first compound max 1 µM, 7x7, partner max 10 µM)
Reply: 0.636

Ask: # combination Emax lookup, item CN(C)CCCOc1ccc(-c2ccc3ncc4c(c3c2)n(C2CCOCC2)c(=O)n4C)cn1 [AZD0156] + C=CCn1c(=O)c2cnc(Nc3ccc(N4CCN(C)CC4)cc3)nc2n1-c1cccc(C(C)(C)O)n1 [AZD1775] (first compound max 1 µM, partner max 1 µM)
Reply: 0.247

* * *

# Tested on: KYSE-180 (Esophageal Squamous Cell Carcinoma)
# test.name: combination Emax (second highest fraction inhibited in the dose matrix, 72 h); higher = more inhibition; extreme values may be limits of the assay
assay.endpoint: combination Emax
Answer as a number with no unit attached.

CN(CCO)CC[C@H](CSc1ccccc1)Nc1ccc(S(=O)(=O)NC(=O)c2ccc(N3CCC([C@@H](O)c4ccccc4-c4ccc(Cl)cc4)CC3)cc2)cc1S(=O)(=O)C(F)(F)F [AZD4320] + Cn1cnc2c(F)c(Nc3ccc(Br)cc3Cl)c(C(=O)NOCCO)cc21 [Selumetinib] (first compound max 1 µM, 7x7, partner max 3 µM)    0.19
C[C@@H](c1ccc2nccn2c1)n1nnc2ncc(-c3cnn(C)c3)nc21 [Savolitinib] + Cc1c2c(nn1C)CSCc1cc(n(C)n1)CSc1cc(c3ccccc3c1)OCCCc1c(C(=O)O)n(C)c3c-2c(Cl)ccc13 [AZD5991] (first compound max 1 µM, 7x7, partner max 1 µM)    0.278

Ask: # combination Emax lookup, item COc1nnc2ccc(N3CCC(c4ccc(OCCN5CCN(C)C(=O)[C@H]5C)cc4)CC3)nn12 [AZD5153] + Cn1cnc2c(F)c(Nc3ccc(Br)cc3Cl)c(C(=O)NOCCO)cc21 [Selumetinib] (first compound max 1 µM, 7x7, partner max 10 µM)
Reply: 0.401

* * *

List of combination Emax values.
# System: SU-DHL-8 (B-Cell Non-Hodgkin's Lymphoma)
# test.name: combination Emax (second highest fraction inhibited in the dose matrix, 72 h); higher = more inhibition; extreme values may be limits of the assay

A selection of reference data follows.
CC1(C)CCC(CN2CCN(c3ccc(C(=O)NS(=O)(=O)c4ccc(NCC5CCOCC5)c([N+](=O)[O-])c4)c(Oc4cnc5[nH]ccc5c4)c3)CC2)=C(c2ccc(Cl)cc2)C1 [Venetoclax] + C=CCn1c(=O)c2cnc(Nc3ccc(N4CCN(C)CC4)cc3)nc2n1-c1cccc(C(C)(C)O)n1 [AZD1775] (first compound max 1 µM, partner max 1 µM)    1
Cc1cc2ncnn2cc1Nc1ncc2c(n1)n(C1CCOCC1)c(=O)n2C [AZD7648] + C=CCn1c(=O)c2cnc(Nc3ccc(N4CCN(C)CC4)cc3)nc2n1-c1cccc(C(C)(C)O)n1 [AZD1775] (first compound max 10 µM, partner max 1 µM)    0.87

Ask: # combination Emax lookup, item COc1cc2ncnc(Nc3ccc(F)c(Cl)c3)c2cc1OCCCN1CCOCC1 [Gefitinib] + CC(C)n1c(=O)n(C)c2cnc3cc(F)c(-c4ccc(OCCCN5CCCCC5)nc4)cc3c21 [AZD1390] (first compound max 10 µM, 7x7, partner max 0.3 µM)
Reply: 0.142

* * *

# Test system: L-540 (Hodgkin's Lymphoma)
# test.name: combination Emax (second highest fraction inhibited in the dose matrix, 72 h); higher = more inhibition; extreme values may be limits of the assay
assay.endpoint: combination Emax
Answer as a number with no unit attached.

A selection of reference data follows.
NC1(C(=O)N[C@@H](CCO)c2ccc(Cl)cc2)CCN(c2ncnc3[nH]ccc23)CC1 [Capivasertib] + COc1nnc2ccc(N3CCC(c4ccc(OCCN5CCN(C)C(=O)[C@H]5C)cc4)CC3)nn12 [AZD5153] (first compound max 10 µM, 7x7, partner max 1 µM)    0.605
C=CCn1c(=O)c2cnc(Nc3ccc(N4CCN(C)CC4)cc3)nc2n1-c1cccc(C(C)(C)O)n1 [AZD1775] + Nc1ccn([C@@H]2O[C@H](CO)[C@@H](O)C2(F)F)c(=O)n1 [Gemcitabine] (first compound max 1 µM, partner max 0.3 µM)    0.968

Ask: Form entry - test system: L-540 (Hodgkin's Lymphoma); read-out: combination Emax; compound: CC1(C)CCC(CN2CCN(c3ccc(C(=O)NS(=O)(=O)c4ccc(NCC5CCOCC5)c([N+](=O)[O-])c4)c(Oc4cnc5[nH]ccc5c4)c3)CC2)=C(c2ccc(Cl)cc2)C1 [Venetoclax] + CS(=O)(=O)CCNCc1ccc(-c2ccc3ncnc(Nc4ccc(OCc5cccc(F)c5)c(Cl)c4)c3c2)o1 [Lapatinib] (first compound max 1 µM, 7x7, partner max 10 µM)
Reply: 0.532

Ask: Form entry - test system: L-540 (Hodgkin's Lymphoma); read-out: combination Emax; compound: CN(CCO)CC[C@H](CSc1ccccc1)Nc1ccc(S(=O)(=O)NC(=O)c2ccc(N3CCC([C@@H](O)c4ccccc4-c4ccc(Cl)cc4)CC3)cc2)cc1S(=O)(=O)C(F)(F)F [AZD4320] + Cn1cnc2c(F)c(Nc3ccc(Br)cc3Cl)c(C(=O)NOCCO)cc21 [Selumetinib] (first compound max 1 µM, 7x7, partner max 3 µM)
Reply: 0.716

* * *

# Test system: EVSA-T (Breast Carcinoma);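 further: after 72 h of two-drug dosing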
# test.name: Bliss excess, mean over the matrix (fraction); higher = more synergy
assay.endpoint: Bliss excess
Answer as a number with no unit attached.

A selection of reference data follows.
CN(CCO)CC[C@H](CSc1ccccc1)Nc1ccc(S(=O)(=O)NC(=O)c2ccc(N3CCC([C@@H](O)c4ccccc4-c4ccc(Cl)cc4)CC3)cc2)cc1S(=O)(=O)C(F)(F)F [AZD4320] + C1CN(CCC1(C(=O)N[C@@H](CCO)C2=CC=C(C=C2)Cl)N)C3=NC=NC4=C3C=CN4 [Capivasertib] (first compound max 1 µM, 7x7, partner max 3 µM)    -0.0161
COc1nnc2ccc(N3CCC(c4ccc(OCCN5CCN(C)C(=O)[C@H]5C)cc4)CC3)nn12 [AZD5153] + C=CCn1c(=O)c2cnc(Nc3ccc(N4CCN(C)CC4)cc3)nc2n1-c1cccc(C(C)(C)O)n1 [AZD1775] (first compound max 1 µM, partner max 1 µM)    -0.0108

Let us examine a further case.
Ask: # Bliss excess lookup, item CN(CCO)CC[C@H](CSc1ccccc1)Nc1ccc(S(=O)(=O)NC(=O)c2ccc(N3CCC([C@@H](O)c4ccccc4-c4ccc(Cl)cc4)CC3)cc2)cc1S(=O)(=O)C(F)(F)F [AZD4320] + C=CCn1c(=O)c2cnc(Nc3ccc(N4CCN(C)CC4)cc3)nc2n1-c1cccc(C(C)(C)O)n1 [AZD1775] (first compound max 1 µM, partner max 1 µM)
Reply: 0.0394

Source of measurements: the supplement of paper PMC11061612
